The following molecules are shown together with reported SI MV-4-11 values.
- Test system: MV-4-11 (human biphenotypic leukaemia)
- assay.details: In vitro cytotoxicity test, MTT assay, 72 h incubation with compound
- Type: cell-based
- condition.description: selectivity coefficient, BALB/3T3 versus MV-4-11

Reference set, count: 3
{"columns": ["molecule", "attribute.measured", "test.value"],
 "data": [
  ["CC[C@@H](C(=O)[C@@H](C)[C@@H](O)[C@H](C)[C@@H]1O[C@@H]([C@@H](CC)C(=O)O)CC[C@@H]1C)[C@H]1O[C@]2(C=C[C@H](NC(=O)CCCCl)[C@]3(CC[C@@](C)([C@H]4CC[C@](O)(CC)[C@H](C)O4)O3)O2)[C@H](C)C[C@@H]1C [(12 epi), reference compound]", "SI MV-4-11", 2.9],
  ["CCCCNC(=O)N[C@@H]1C=C[C@]2(O[C@H]([C@@H](CC)C(=O)[C@@H](C)[C@@H](O)[C@H](C)[C@@H]3O[C@@H]([C@@H](CC)C(=O)[O-])CC[C@@H]3C)[C@@H](C)C[C@H]2C)O[C@@]12CC[C@@](C)([C@H]1CC[C@](O)(CC)[C@H](C)O1)O2.[Na+]", "SI MV-4-11", 800.0],
  ["CC[C@@H](C(=O)[C@@H](C)[C@@H](O)[C@H](C)[C@@H]1O[C@@H]([C@@H](CC)C(=O)O)CC[C@@H]1C)[C@H]1O[C@]2(C=C[C@@H](O)[C@]3(CC[C@@](C)([C@H]4CC[C@](O)(CC)[C@H](C)O4)O3)O2)[C@H](C)C[C@@H]1C", "SI MV-4-11", 29.7]
]}

Lab note: next molecule to report on.
Requested read-out: SI MV-4-11. Entry: CC[C@@H](C(=O)[C@@H](C)[C@@H](O)[C@H](C)[C@@H]1O[C@@H]([C@@H](CC)C(=O)O)CC[C@@H]1C)[C@H]1O[C@]2(C=C[C@@H](NC(=O)COC)[C@]3(CC[C@@](C)([C@H]4CC[C@](O)(CC)[C@H](C)O4)O3)O2)[C@H](C)C[C@@H]1C
51.9

###

Recorded measurements of RI, one per entry
- Tested on: LoVo/DX (drug-resistant human colon cancer)
- assay.details: In vitro cytotoxicity test, SRB assay, 72 h incubation with compound
- Assay type: cell-based
- condition.description: drug resistance coefficient, LoVo/DX versus LoVo; 4320 min

{"columns": ["molecule", "RI"],
 "data": [
  ["CC[C@@H](C(=O)[C@@H](C)[C@@H](O)[C@H](C)[C@@H]1O[C@@H]([C@@H](CC)C(=O)O)CC[C@@H]1C)[C@H]1O[C@]2(C=C[C@H](NC(=O)c3ccccc3)[C@]3(CC[C@@](C)([C@H]4CC[C@](O)(CC)[C@H](C)O4)O3)O2)[C@H](C)C[C@@H]1C [(15 epi), reference compound]", 3]
]}

Let's switch to this molecule now.
// RI lookup, key: CC[C@@H](C(=O)[C@@H](C)[C@@H](O)[C@H](C)[C@@H]1O[C@@H]([C@@H](CC)C(=O)O)CC[C@@H]1C)[C@H]1O[C@]2(C=C[C@@H](O)[C@]3(CC[C@@](C)([C@H]4CC[C@](O)(CC)[C@H](C)O4)O3)O2)[C@H](C)C[C@@H]1C
2.3

###

Quick list: RI per entry.
- Test system: LoVo/DX (drug-resistant human colon cancer)
- assay.details: In vitro cytotoxicity test, SRB assay, 72 h incubation with compound
- Type: cell-based
- condition.description: drug resistance coefficient, LoVo/DX versus LoVo; 4320 min
Reply: number alone, nothing else.

Look over these answered cases.
{"columns": ["compound", "RI"],
 "data": [
  ["CC[C@@H](C(=O)[C@@H](C)[C@@H](O)[C@H](C)[C@@H]1O[C@@H]([C@@H](CC)C(=O)O)CC[C@@H]1C)[C@H]1O[C@]2(C=C[C@@H](NC(=O)C(C)C)[C@]3(CC[C@@](C)([C@H]4CC[C@](O)(CC)[C@H](C)O4)O3)O2)[C@H](C)C[C@@H]1C", 0.3],
  ["CC[C@@H](C(=O)[C@@H](C)[C@@H](O)[C@H](C)[C@@H]1O[C@@H]([C@@H](CC)C(=O)O)CC[C@@H]1C)[C@H]1O[C@]2(C=C[C@@H](NC(=O)COC)[C@]3(CC[C@@](C)([C@H]4CC[C@](O)(CC)[C@H](C)O4)O3)O2)[C@H](C)C[C@@H]1C", 3.5],
  ["CC[C@@H](C(=O)[C@@H](C)[C@@H](O)[C@H](C)[C@@H]1O[C@@H]([C@@H](CC)C(=O)O)CC[C@@H]1C)[C@H]1O[C@]2(C=C[C@@H](NC(=O)OC)[C@]3(CC[C@@](C)([C@H]4CC[C@](O)(CC)[C@H](C)O4)O3)O2)[C@H](C)C[C@@H]1C", 0.3]
]}

API: the following record is the query input.
Item under review: C#CCOC(=O)N[C@@H]1C=C[C@]2(O[C@H]([C@@H](CC)C(=O)[C@@H](C)[C@@H](O)[C@H](C)[C@@H]3O[C@@H]([C@@H](CC)C(=O)O)CC[C@@H]3C)[C@@H](C)C[C@H]2C)O[C@@]12CC[C@@](C)([C@H]1CC[C@](O)(CC)[C@H](C)O1)O2 . Reported RI?
0.2

###

- Tested on: LoVo (drug-sensitive human colon cancer)
- assay.details: In vitro cytotoxicity test, SRB assay, 72 h incubation with compound
- Format: cell-based
- condition.description: selectivity coefficient, BALB/3T3 versus LoVo
- Experimental: In vitro cytotoxicity tests were performed according to the procedure described below. […] The solvent for further dilutions was a culture medium. The experiments were repeated at least 3 times.
attribute.measured: SI LoVo
Output spec: single numeric token, no unit.

Would you mind telling me what SI LoVo value was observed for CCOC(=O)N[C@H]1C=C[C@]2(O[C@H]([C@@H](CC)C(=O)[C@@H](C)[C@@H](O)[C@H](C)[C@@H]3O[C@@H]([C@@H](CC)C(=O)O)CC[C@@H]3C)[C@@H](C)C[C@H]2C)O[C@@]12CC[C@@](C)([C@H]1CC[C@](O)(CC)[C@H](C)O1)O2 [(19 epi), reference compound] ?
4.1

Entry CC[C@@H](C(=O)[C@@H](C)[C@@H](O)[C@H](C)[C@@H]1O[C@@H]([C@@H](CC)C(=O)O)CC[C@@H]1C)[C@H]1O[C@]2(C=C[C@@H](NC(=O)c3ccc(CCl)cc3)[C@]3(CC[C@@](C)([C@H]4CC[C@](O)(CC)[C@H](C)O4)O3)O2)[C@H](C)C[C@@H]1C has what SI LoVo?
8.6

Reported SI LoVo for CC[C@@H](C(=O)[C@@H](C)[C@@H](O)[C@H](C)[C@@H]1O[C@@H]([C@@H](CC)C(=O)O)CC[C@@H]1C)[C@H]1O[C@]2(C=C[C@@H](NC(=O)c3ccccc3)[C@]3(CC[C@@](C)([C@H]4CC[C@](O)(CC)[C@H](C)O4)O3)O2)[C@H](C)C[C@@H]1C : what is it?
5.1

###

- Test system: LoVo (drug-sensitive human colon cancer)
- assay.details: In vitro cytotoxicity test, SRB assay, 72 h incubation with compound
- Assay type: cell-based
- condition.description: selectivity coefficient, BALB/3T3 versus LoVo
attribute.measured: SI LoVo
Enter a number only.

Worked cases, answers included:
{"columns": ["compound", "test.value"],
 "data": [
  ["CC[C@@H](C(=O)[C@@H](C)[C@@H](O)[C@H](C)[C@@H]1O[C@@H]([C@@H](CC)C(=O)O)CC[C@@H]1C)[C@H]1O[C@]2(C=C[C@@H](NC(=O)CCCCl)[C@]3(CC[C@@](C)([C@H]4CC[C@](O)(CC)[C@H](C)O4)O3)O2)[C@H](C)C[C@@H]1C [(12)]", 27.1],
  ["CC[C@@H](C(=O)[C@@H](C)[C@@H](O)[C@H](C)[C@@H]1O[C@@H]([C@@H](CC)C(=O)O)CC[C@@H]1C)[C@H]1O[C@]2(C=C[C@@H](NC(=O)OCC(C)(C)C)[C@]3(CC[C@@](C)([C@H]4CC[C@](O)(CC)[C@H](C)O4)O3)O2)[C@H](C)C[C@@H]1C [(20)]", 4.0],
  ["CCCNC(=O)N[C@@H]1C=C[C@]2(O[C@H]([C@@H](CC)C(=O)[C@@H](C)[C@@H](O)[C@H](C)[C@@H]3O[C@@H]([C@@H](CC)C(=O)[O-])CC[C@@H]3C)[C@@H](C)C[C@H]2C)O[C@@]12CC[C@@](C)([C@H]1CC[C@](O)(CC)[C@H](C)O1)O2.[Na+] [(23)]", 25.7]
]}

Suppose we examine the compound CC[C@@H](C(=O)[C@@H](C)[C@@H](O)[C@H](C)[C@@H]1O[C@@H]([C@@H](CC)C(=O)O)CC[C@@H]1C)[C@H]1O[C@]2(C=C[C@H](NC(=O)c3ccccc3)[C@]3(CC[C@@](C)([C@H]4CC[C@](O)(CC)[C@H](C)O4)O3)O2)[C@H](C)C[C@@H]1C [(15 epi), reference compound] ; what SI LoVo value has been reported?
5

The reported numbers originate from patent US12741974B2.
